- Measured Target: 5-hydroxytryptamine receptor 1A (Homo sapiens)
- Sequence (P08908 whole entry): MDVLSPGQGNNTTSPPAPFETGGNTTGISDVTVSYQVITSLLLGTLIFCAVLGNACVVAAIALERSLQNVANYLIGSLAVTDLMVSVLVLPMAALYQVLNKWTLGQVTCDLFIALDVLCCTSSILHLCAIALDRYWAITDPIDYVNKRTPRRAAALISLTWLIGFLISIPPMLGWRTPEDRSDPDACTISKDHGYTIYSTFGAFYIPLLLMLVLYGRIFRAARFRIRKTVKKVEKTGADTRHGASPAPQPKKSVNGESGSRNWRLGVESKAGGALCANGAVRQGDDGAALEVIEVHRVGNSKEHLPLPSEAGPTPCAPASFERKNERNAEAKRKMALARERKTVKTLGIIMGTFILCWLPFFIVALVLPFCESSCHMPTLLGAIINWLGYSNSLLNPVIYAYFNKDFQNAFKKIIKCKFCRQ
- Experiment Notes: Displacement of [3H]8-OH-DPAT from 5-hydroxytryptamine 1A receptor expressed in CHO cell membranes
pKi: −log10 of the molar value.
Quantity Measured: pKi

>>> observed_value("NC(=O)c1cc2c3c(ccc2[nH]1)OCC(CN1CCC2(CC1)C(=O)NCN2c1ccccc1)O3 (stereo not drawn)")
9.52
>>> observed_value("N#Cc1cc2c3c(ccc2[nH]1)OCC(CN1CCC2(CC1)C(=O)NCN2c1ccccc1)O3 (stereo not drawn)")
9.30
>>> observed_value("COC(=O)c1cc2c3c(ccc2[nH]1)OCC(CNCCCc1ccccc1)O3 (stereo not drawn)")
9.70

* * *

In this section, each of the compounds is paired with its reported Ki.
- Measured Target: UniProt P08908
- Experiment Notes: Displacement of [3H]8-OH-DPAT from 5-hydroxytryptamine 1A receptor expressed in CHO cell membranes
Quantity Measured: Ki (nM)

>>> observed_value("O=C(NCCCc1ccccc1)c1cc2c3c(ccc2[nH]1)OCC(CNCCCc1ccccc1)O3 (centres undefined)")
1.6
>>> observed_value("O=C(OCc1ccccc1)c1cc2c3c(ccc2[nH]1)OCC(CN1CCC2(CC1)C(=O)NCN2c1ccccc1)O3 (centres undefined)")
1
>>> observed_value("O=C1NCN(c2ccccc2)C12CCN(CC1COc3ccc4[nH]c(CO)cc4c3O1)CC2 (centres undefined)")
0.6
>>> observed_value("COC(=O)c1cc2c3c(ccc2[nH]1)OCC(CN1CCC(n2c(O)nc4ccccc42)CC1)O3 (centres undefined)")
0.6
>>> observed_value("COC(=O)c1cc2c3c(ccc2[nH]1)OCC(CN1CCC(Nc2ccccc2)(C(N)=O)CC1)O3 (centres undefined)")
22
>>> observed_value("COC(=O)c1cc2c3c(ccc2[nH]1)OCC(CN1CCC2(CC1)C(=O)NCN2c1ccccc1)O3 (centres undefined)")
0.9
>>> observed_value("O=C1NCN(c2ccccc2)C12CCN(CC1COc3ccc4[nH]ccc4c3O1)CC2 (centres undefined)")
0.4
>>> observed_value("CCCCOC(=O)c1cc2c3c(ccc2[nH]1)OCC(CN1CCC2(CC1)C(=O)NCN2c1ccccc1)O3 (centres undefined)")
3
>>> observed_value("O=C(O)c1cc2c3c(ccc2[nH]1)OCC(CN1CCC2(CC1)C(=O)NCN2c1ccccc1)O3 (centres undefined)")
17.8

* * *

- Measured Target: D(2) dopamine receptor (Homo sapiens, UniProt P14416)
- Sequence (P14416 whole entry): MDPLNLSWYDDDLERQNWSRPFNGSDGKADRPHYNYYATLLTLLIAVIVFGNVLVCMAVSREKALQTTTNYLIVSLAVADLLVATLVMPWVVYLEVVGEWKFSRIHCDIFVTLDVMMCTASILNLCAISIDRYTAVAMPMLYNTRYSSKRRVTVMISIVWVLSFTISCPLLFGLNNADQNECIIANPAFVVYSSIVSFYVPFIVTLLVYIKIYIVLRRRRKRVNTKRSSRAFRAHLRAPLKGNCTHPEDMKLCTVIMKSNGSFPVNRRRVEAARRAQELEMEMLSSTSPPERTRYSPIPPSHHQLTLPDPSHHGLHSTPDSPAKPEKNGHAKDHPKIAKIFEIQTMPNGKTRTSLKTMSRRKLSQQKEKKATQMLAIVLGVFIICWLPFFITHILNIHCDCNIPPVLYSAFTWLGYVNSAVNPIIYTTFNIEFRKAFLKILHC
- Experiment Notes: Binding affinity towards Dopamine receptor D2 from mammalian clones expressed in CHO cell membranes using 2 (86.1 Ci/mmol,1.7nanoM)as radioligand
In this section, each of the compounds is paired with its reported Ki.
Quantity Measured: Ki (nM)

>>> observed_value("COC(=O)c1cc2c3c(ccc2[nH]1)OCC(CNCCCc1ccccc1)O3 (stereo unspecified)")
15.9
>>> observed_value("CCOC(=O)C1CCN(CC2COc3ccc4[nH]c(C(=O)OC)cc4c3O2)CC1 (stereo unspecified)")
255
>>> observed_value("CCCCOC(=O)c1cc2c3c(ccc2[nH]1)OCC(CN1CCC2(CC1)C(=O)NCN2c1ccccc1)O3 (stereo unspecified)")
5.7
>>> observed_value("COC(=O)c1cc2c3c(ccc2[nH]1)OCC(CN1CCC(n2c(O)nc4ccccc42)CC1)O3 (stereo unspecified)")
6.7
>>> observed_value("N#Cc1cc2c3c(ccc2[nH]1)OCC(CN1CCC2(CC1)C(=O)NCN2c1ccccc1)O3 (stereo unspecified)")
1.5
>>> observed_value("NC(=O)c1cc2c3c(ccc2[nH]1)OCC(CN1CCC2(CC1)C(=O)NCN2c1ccccc1)O3 (stereo unspecified)")
1.8
>>> observed_value("O=C1NCN(c2ccccc2)C12CCN(CC1COc3ccc4[nH]c(CO)cc4c3O1)CC2 (stereo unspecified)")
2
>>> observed_value("O=C(O)c1cc2c3c(ccc2[nH]1)OCC(CN1CCC2(CC1)C(=O)NCN2c1ccccc1)O3 (stereo unspecified)")
58
>>> observed_value("O=C(NCCCc1ccccc1)c1cc2c3c(ccc2[nH]1)OCC(CNCCCc1ccccc1)O3 (stereo unspecified)")
41
>>> observed_value("O=C(OCc1ccccc1)c1cc2c3c(ccc2[nH]1)OCC(CN1CCC2(CC1)C(=O)NCN2c1ccccc1)O3 (stereo unspecified)")
5.8

* * *

In this section, each of the molecules is paired with its reported Ki.
- Measured Target: Adrenergic receptor alpha-1 (Rattus norvegicus, UniProt P15823+P23944+P43140)
- Sequence (P15823 whole entry): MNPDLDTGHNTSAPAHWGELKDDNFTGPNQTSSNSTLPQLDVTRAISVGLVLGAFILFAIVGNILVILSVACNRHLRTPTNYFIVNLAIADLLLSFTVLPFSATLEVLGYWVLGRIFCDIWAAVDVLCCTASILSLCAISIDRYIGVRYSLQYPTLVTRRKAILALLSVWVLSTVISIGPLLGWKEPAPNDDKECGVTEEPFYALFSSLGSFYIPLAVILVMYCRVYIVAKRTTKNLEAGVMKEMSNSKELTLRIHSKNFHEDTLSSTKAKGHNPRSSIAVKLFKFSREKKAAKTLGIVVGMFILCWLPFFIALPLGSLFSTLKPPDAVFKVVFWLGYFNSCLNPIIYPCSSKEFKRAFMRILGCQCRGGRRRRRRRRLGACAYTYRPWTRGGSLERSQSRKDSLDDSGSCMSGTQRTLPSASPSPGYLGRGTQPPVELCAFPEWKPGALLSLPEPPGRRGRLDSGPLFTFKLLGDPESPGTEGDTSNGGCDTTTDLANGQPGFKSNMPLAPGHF
- Sequence (P23944 whole entry): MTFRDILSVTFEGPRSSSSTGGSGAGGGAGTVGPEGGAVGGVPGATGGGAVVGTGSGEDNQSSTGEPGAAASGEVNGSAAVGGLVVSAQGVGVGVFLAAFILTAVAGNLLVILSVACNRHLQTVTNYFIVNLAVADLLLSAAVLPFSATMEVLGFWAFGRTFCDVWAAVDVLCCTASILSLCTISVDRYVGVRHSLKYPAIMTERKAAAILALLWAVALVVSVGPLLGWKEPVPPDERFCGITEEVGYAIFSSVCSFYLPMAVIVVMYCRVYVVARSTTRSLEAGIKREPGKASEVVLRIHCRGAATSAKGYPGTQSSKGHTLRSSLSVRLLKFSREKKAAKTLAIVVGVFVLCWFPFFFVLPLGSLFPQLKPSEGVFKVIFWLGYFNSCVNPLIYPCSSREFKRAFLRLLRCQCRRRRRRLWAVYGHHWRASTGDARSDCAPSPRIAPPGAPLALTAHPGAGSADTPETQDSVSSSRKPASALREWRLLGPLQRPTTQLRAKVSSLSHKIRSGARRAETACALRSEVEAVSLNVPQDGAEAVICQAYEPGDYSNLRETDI
- Sequence (P43140 whole entry): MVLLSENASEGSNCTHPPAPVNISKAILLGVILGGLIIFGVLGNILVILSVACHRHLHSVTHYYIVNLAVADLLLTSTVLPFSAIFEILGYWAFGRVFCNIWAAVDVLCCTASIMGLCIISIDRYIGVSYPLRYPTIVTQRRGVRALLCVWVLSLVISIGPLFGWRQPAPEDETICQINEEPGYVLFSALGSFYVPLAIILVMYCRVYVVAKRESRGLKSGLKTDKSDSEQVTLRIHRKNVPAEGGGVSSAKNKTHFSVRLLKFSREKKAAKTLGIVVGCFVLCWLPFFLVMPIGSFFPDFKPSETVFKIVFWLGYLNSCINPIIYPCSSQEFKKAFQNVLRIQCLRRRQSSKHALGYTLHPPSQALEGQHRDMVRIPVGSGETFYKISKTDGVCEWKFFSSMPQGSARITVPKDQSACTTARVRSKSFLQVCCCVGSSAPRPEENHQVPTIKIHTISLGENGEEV
- Experiment Notes: Binding affinity towards Alpha-1 adrenergic receptor from rat whole brain using [3H]prazosin (18.1 Ci/mmol,0.9nanoM)as radioligand
Quantity Measured: Ki

>>> observed_value("CCOC(=O)C1CCN(CC2COc3ccc4[nH]c(C(=O)OC)cc4c3O2)CC1 (stereo unspecified)")
"12.3 nM"
>>> observed_value("COC(=O)c1cc2c3c(ccc2[nH]1)OCC(CN1CCC(Nc2ccccc2)(C(N)=O)CC1)O3 (stereo unspecified)")
"19.8 nM"
>>> observed_value("N#Cc1cc2c3c(ccc2[nH]1)OCC(CN1CCC2(CC1)C(=O)NCN2c1ccccc1)O3 (stereo unspecified)")
"6 nM"
>>> observed_value("O=C(OCc1ccccc1)c1cc2c3c(ccc2[nH]1)OCC(CN1CCC2(CC1)C(=O)NCN2c1ccccc1)O3 (stereo unspecified)")
"30.4 nM"
>>> observed_value("O=C(O)c1cc2c3c(ccc2[nH]1)OCC(CN1CCC2(CC1)C(=O)NCN2c1ccccc1)O3 (stereo unspecified)")
"> 862 nM"
>>> observed_value("O=C1NCN(c2ccccc2)C12CCN(CC1COc3ccc4[nH]c(CO)cc4c3O1)CC2 (stereo unspecified)")
"8.8 nM"

* * *

- Measured Target: D(2) dopamine receptor (Homo sapiens, UniProt P14416)
- Experiment Notes: Compound was evaluated for the binding affinity towards Dopamine receptor D2 from mammalian clones expressed in CHO cell membranes using [3H]U-86170 as radioligand
Quantity Measured: Ki (nM)

>>> observed_value("COC(=O)c1cc2c3c(ccc2[nH]1)OCC(CN1CCC2(CC1)C(=O)NCN2c1ccccc1)O3 (stereo unspecified)")
3.1
